For each entry below, report its IC50 value.
tested.on: UniProt Q01064
Sequence (Q01064 whole entry): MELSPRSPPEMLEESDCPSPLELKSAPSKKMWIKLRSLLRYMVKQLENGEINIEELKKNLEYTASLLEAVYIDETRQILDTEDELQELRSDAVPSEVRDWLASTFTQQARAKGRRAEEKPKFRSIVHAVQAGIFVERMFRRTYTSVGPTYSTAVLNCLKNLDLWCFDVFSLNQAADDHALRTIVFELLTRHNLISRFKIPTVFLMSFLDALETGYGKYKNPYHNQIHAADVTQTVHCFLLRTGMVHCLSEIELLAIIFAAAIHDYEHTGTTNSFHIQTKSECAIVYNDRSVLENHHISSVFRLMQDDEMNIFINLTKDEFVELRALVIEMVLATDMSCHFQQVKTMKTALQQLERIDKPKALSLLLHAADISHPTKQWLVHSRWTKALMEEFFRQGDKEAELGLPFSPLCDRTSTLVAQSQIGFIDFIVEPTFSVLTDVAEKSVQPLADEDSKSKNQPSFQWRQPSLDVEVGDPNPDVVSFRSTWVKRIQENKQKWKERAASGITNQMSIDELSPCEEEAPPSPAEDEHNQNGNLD
assay.name: PDE1 inhibition assay (PDE1B), SPA with tritium labelled cAMP
Assay type: biochemical
details: PDE1B, IC50 (nM), 15 nM tritium labelled cAMP, 1 hr at room temperature, SPA beads
Method: Reactions were initiated by addition of the cyclic nucleotide substrate, and reactions were allowed to proceed for 1 hr at room temperature before being terminated through mixing with 20 μL (0.2 mg) yttrium silicate SPA beads (PerkinElmer).
Answers are plain numbers, in nM.

| smiles | unit.symbol | IC50 |
| --- | --- | --- |
| Cc1coc(-c2cc(NCc3ncn(C)n3)c3c(C(C)C)nn(C)c3n2)n1 | nM | 14 |

Would you kindly look at the next entry?
input: Any idea what IC50 was measured for CCOc1ncccc1-c1cc(NCc2cnn(C)n2)c2c(C(C)C)nn(C)c2n1 ?
output: 18
